- measurement description: NCI Yeast Anticancer Drug Screen. Data for the bub3 strain (AID 167)
- measurement setup: S. cerevisiae bub3 mutant strain, at 50.0 µM
Compounds without any hit were thinned out: in the full panel of roughly 79,000, 15% have a hit. Activity calls are given as the source filed them. No stated cut-off is given here; in the data, active means growth inhibition above about 70%; inactive means the rest.
Labels: active, inactive

O=C(Oc1c(Cl)c(Cl)c(Cl)c(Cl)c1Cl)Oc1c(Cl)c(Cl)c(Cl)c(Cl)c1Cl = inactive
Cc1ccc(C)c(NC(=O)C(=O)CC(=O)c2cccc3ccccc23)c1 = inactive
Cc1ccc(-n2[nH]nc(C#N)c2=O)cc1 = inactive
Cc1ccccc1NP1(Nc2ccccc2C)=NP(Nc2ccccc2C)(Nc2ccccc2C)=NP(Nc2ccccc2C)(Nc2ccccc2C)=NP(Nc2ccccc2C)(Nc2ccccc2C)=N1 = inactive
COc1ccc2cc(C(C)C(=O)N3C(=O)OCC3(C)C)ccc2c1 (stereo not given) = inactive
CC(C)C1OCCOCCO1 = inactive
N#CCCN(C(=O)COc1ccc(Cl)cc1Cl)C1CCCCC1 = active
Cc1cc(C)nc(NS(=O)(=O)c2ccc(NC(=O)c3ccncc3)cc2)n1 = inactive
CCOC(=O)/C(OC(C)=O)=C1/C=C(C(=O)c2ccccc2)CCC1 = inactive
CN(/N=C/c1cccs1)c1ccc([N+](=O)[O-])cc1[N+](=O)[O-] = inactive

###

- measurement description: NCI Yeast Anticancer Drug Screen. Data for the rad50 strain (AID 155);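 further: 0% = growth of vehicle-only cultures of the same strain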
- measurement setup: S. cerevisiae rad50 strain growth inhibition; at 50.0 µM
The panel holds about 79,000 compounds, 15% with a hit somewhere; the sample as a whole holds those more often. Active and inactive are the calls of the source. Rule as the data show it: active = growth inhibition above about 70%; inactive = the rest.
Labels: 1 for active, 0 for inactive

CCCCNC(=O)c1ccc(C(C)C)cc1 = 0
COc1ccc2c(c1)OCCN(C)OC2c1ccccc1 (configuration not stated) = 0
COc1ccc(OC)c(N2C(=O)C(=O)C(C(C)=O)C2=O)c1 (configuration not stated) = 0
COc1ccc(OC)c2c1ccc1c(C)c3ccccc3c(C)c12 = 0
CC1(C)CC[C@]2(C(=O)O)CC[C@]3(C)C(=CC[C@@H]4[C@@]5(C)CC[C@H](OC6OC(C(=O)O)C(O)C(O)C6O)C(C)(C)[C@@H]5CC[C@]43C)[C@@H]2C1 (some centres not stated) = 1
Cc1cc[n+](CC(=O)c2ccc(Br)cc2)cc1 = 0
N#CC1(C#N)C(CCl)C1(C#N)C#N = 0
CC(C)CC1NC(=O)OC1=O (configuration not stated) = 0
CN1c2ccccc2C2=C(c3ccccc3)CC[C@@H](C(=O)N3C4CC5CC[C@@]4(CS3(=O)=O)C5(C)C)[C@@H]21 (some centres not stated) = 0
O=C(O)CCC(NC(=O)c1ccc(Nc2nc3ccccc3nc2C(=O)O)cc1)C(=O)O (configuration not stated) = 0
CC(=O)OC[C@H]1O[C@@H](O[C@H]2[C@H](OC(C)=O)C=CO[C@@H]2COC(C)=O)C(OC(C)=O)[C@H]2OC(C)(C)O[C@H]21 (some centres not stated) = 0
O=C(Cc1ccccn1)c1cccnc1 = 0
CCCCCCCCCCCC(=O)OC(C)CO (configuration not stated) = 0
CC(CNC(=O)c1ccccc1)(CNC(=O)c1ccccc1)[N+](=O)[O-] = 0
CC(CCC(=O)O)C1CCC2C3CCC4CCCCC4(C)C3CCC12C (configuration not stated) = 0
O=c1c[n+](-c2ccccc2)[nH]o1 = 0
CSc1ccc(C(=O)C[n+]2cc3ccccc3cc2C)cc1 = 0
CCc1ccc(Cc2ccc(CC)c(NC(=O)C(=O)C3NC(=S)NC3=O)c2CC)c(CC)c1NC(=O)C(=O)C1NC(=S)NC1=O (configuration not stated) = 0
CC(=O)OCC1OC(OC(C)=O)C(N(C)C(C)=O)C(OC(C)=O)C1OC(C)=O (configuration not stated) = 0
COC(=O)C1C(=O)C=C(C)C(C(=O)OC)C1c1ccccc1 (configuration not stated) = 0
C=CC[N+]12CC=C3COC(=O)C(C)(O)C(C)(O)C(C)C(=O)OC(CC1)C32 (configuration not stated) = 0
CCC1c2c(cc(=O)[nH]c2O)C(=O)N1Cc1ccccc1 (configuration not stated) = 0
